# Study system: Dnmt3a-CD (mouse (murine), UniProt O88508 630-908)
# Sequence (O88508 630-908): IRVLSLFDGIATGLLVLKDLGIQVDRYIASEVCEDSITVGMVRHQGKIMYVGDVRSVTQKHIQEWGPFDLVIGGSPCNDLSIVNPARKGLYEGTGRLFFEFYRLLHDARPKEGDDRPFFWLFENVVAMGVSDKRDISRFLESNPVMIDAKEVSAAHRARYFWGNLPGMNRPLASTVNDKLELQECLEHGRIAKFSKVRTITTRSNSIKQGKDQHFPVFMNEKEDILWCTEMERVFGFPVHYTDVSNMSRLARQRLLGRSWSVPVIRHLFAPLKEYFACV
# Test protocol: fluorescence polarization; 100 uM AdoHcy; 20 mM HEPES-NaOH pH 7.5, 100 mM KCl, 1 mM EDTA, 1 mM DTT, 100 uM AdoHcy, 10 nM DNA (60 nM for PWWP); FP temperature not stated; methylation competition at 37 C
# Condition details: protein: recombinant; tags: N-terminal 6xHis; chain copies: 4; label: 5'-FAM; intramolecular parallel G4
Metric: Kd (nM)

* TGGGGAGGGTGGGGAGGGTGGGGAAGG (structured_DNA) [27fG4] | 120
